- protocol_text: Partition coefficient (logP)
- Format: physicochemical
- condition_summary: octanol/water
The compounds listed here are annotated with their logP.

compound: C[11CH](C)NC[C@H](O)COc1cccc2[nH]c(O)nc12
measured_value: -0.64
--
compound: [3H]c1cc([3H])c2c(c1OCC(O)CNC(C)(C)C)=NC(=O)N=2 (stereo not drawn)
measured_value: -0.5

Kindly consider the entry below.
Prompt line: For the compound shown here, CC(C[18F])NC[C@H](O)COc1cccc2[nH]c(O)nc12 (stereo partly drawn) , give the reported logP.
Response line: 0.44
